I'd be grateful if you could share measured CC50 at 5 days for these entries.
Tested on: nuclear DNA-encoded succinate dehydrogenase (SDH-A; complex II) protein level
Assay: Nuclear protein synthesis (SDH-A, MitoBiogenesis in-cell ELISA) in PC-3 cells
Assay type: cell-based, human
Conditions: human, read-out: Mean CC50 ± SD causing General cellular toxicity: Protein synthesis

Reported CC50 at 5 days of `CC(C)OC(=O)[C@H](C)N[P@](=O)(OC[C@H]1O[C@@H](n2ccc(=O)[nH]c2=O)[C@](C)(F)[C@@H]1O)Oc1ccccc1` : > 100 µM

Measured CC50 at 5 days of `C[C@@]1(F)[C@H](O)[C@@H](CO)O[C@H]1n1ccc(N)nc1=O` : > 100 µM

// field: CC50 at 5 days; key: `[N-]=[N+]=N[C@]1(CO)O[C@@H](n2ccc(N)nc2=O)[C@H](O)[C@@H]1O` ; value = > 50 µM

The compound listed as COc1nc(N)nc2c1ncn2[C@@H]1O[C@H](COP(=O)(N[C@@H](C)C(=O)OCC(C)(C)C)Oc2cccc3ccccc23)[C@@H](O)[C@@]1(C)O (some centres unmarked) shows CC50 at 5 days equal to 0.84 µM

The compound CCOc1nc(N)nc2c1ncn2[C@@H]1O[C@@H]2COP(=O)(OC(C)C)O[C@H]2[C@@]1(C)F (some centres unmarked) showed CC50 at 5 days equal to > 100 µM
